- MEASURED_TARGET: T1, human αIIbβ3 integrin on transfected CHO K1 cells (human, UniProt P08514 32-1039; P05106 27-788)
- T1 construct: whole, on cells; CHO K1 cells transfected with human αIIb and β3 cDNA; about 30% of the cells expressed the receptor; also called platelet receptor; platelet integrin
- ASSAY_SUMMARY: adhesion of αIIbβ3 CHO K1 cells to the peptide monolayer, 300 µM cRGDFG present
Ends that are not written are not given here. maleimide monolayer = not defined here
OBSERVATION_TYPE: binding result

AGDVC(maleimide monolayer)-NH2 (not fully specified; reading uncertain, also called 0.5% AGDVC SAM) [AGDVC (SEQ ID NO: 17), immobilized on a self-assembled monolayer] ... binds
KQAGDVC(maleimide monolayer)-NH2 (reading uncertain, also called 0.5% KQAGDVC SAM) [KQAGDVC (SEQ ID NO: 14), immobilized on a self-assembled monolayer] ... binds
